Sourced from ChEMBL document CHEMBL1697723

- System: Hepatotoxicity
- MEASUREMENT_DESCRIPTION: Human drug-induced liver injury (DILI) modelling dataset from Ekins et al
OBSERVABLE: Hepatotoxicity

Consider the worked cases shown below.
COMPOUND	Hepatotoxicity
CO[C@@]1(NC(=O)C(C(=O)[O-])c2ccc(O)cc2)C(=O)N2C(C(=O)[O-])=C(CSc3nnnn3C)CO[C@@H]21.[Na+].[Na+] (stereo partly drawn) [MOXALACTAM DISODIUM]	DILI negative (test set)
Cn1c(=O)c2c(ncn2C)n(C)c1=O	DILI negative (test set)
CCCc1nc(C(C)(C)O)c(C(=O)O)n1Cc1ccc(-c2ccccc2-c2nnn[nH]2)cc1	DILI negative (test set)
Nc1ccc(Cc2ccc(N)cc2)cc1	DILI positive (test set)
O=C(Cc1cccs1)N[C@@H]1C(=O)N2C(C(=O)[O-])=C(C[n+]3ccccc3)CS[C@H]12	DILI positive (test set)
CC(=O)OCC1=C(C(=O)[O-])N2C(=O)[C@@H](NC(=O)Cc3cccs3)[C@H]2SC1.[Na+] [CEPHALOTHIN SODIUM]	DILI positive (test set)
O=c1[nH]c(=O)n([C@@H]2O[C@H](CO)[C@@H](O)[C@@H]2F)cc1I	DILI positive (test set)
CC(C(=O)O)c1cccc(C(=O)c2ccccc2)c1 (stereo not drawn)	DILI negative (test set)
NN [HYDRAZINE]	DILI positive (test set)
O=[N+]([O-])c1ccc(O)c([N+](=O)[O-])c1	DILI positive (test set)

Here is another compound to look at.
Task: I would be grateful if you could share the reported Hepatotoxicity for CN(C)N=O .
Output: DILI positive (test set)

----------
- Test system: Hepatotoxicity
- MEASUREMENT_DESCRIPTION: Human drug-induced liver injury (DILI) modelling dataset from Ekins et al
OBSERVABLE: Hepatotoxicity

> print(dat)
                                   molecule      observable                data.value
1        CC(C)Cc1ccc(CC(=O)O)cc1 [IBUFENAC]  Hepatotoxicity  DILI positive (test set)
2  COc1cc(C(=O)NCc2ccc(OCCN(C)C)cc2)cc(OC)c1OC.Cl [TRIMETHOBENZAMIDE HYDROCHLORIDE]  Hepatotoxicity  DILI positive (test set)

----------
- System: Hepatotoxicity
- MEASUREMENT_DESCRIPTION: Human drug-induced liver injury (DILI) modelling dataset from Ekins et al
OBSERVABLE: Hepatotoxicity

Examples with answers:
> print(dat)
                                   compound      observable                data.value
1  CN(CCOc1ccc(CC2SC(=O)NC2=O)cc1)c1ccccn1 (stereo not drawn)  Hepatotoxicity  DILI negative (test set)
2  CN(C)c1ccc(O)c2c1C[C@H]1C[C@H]3[C@H](N(C)C)C(O)=C(C(N)=O)C(=O)[C@@]3(O)C(O)=C1C2=O.Cl [MINOCYCLINE HYDROCHLORIDE]  Hepatotoxicity  DILI positive (test set)
3  Nc1nc(NC2CC2)c2ncn([C@H]3C=C[C@@H](CO)C3)c2n1  Hepatotoxicity  DILI positive (test set)
4  CCOC(=O)Nc1ccc2c(c1)N(C(=O)CCN1CCOCC1)c1ccccc1S2.Cl [MORICIZINE HYDROCHLORIDE]  Hepatotoxicity  DILI positive (test set)
5  Cc1onc(-c2ccccc2Cl)c1C(=O)N[C@@H]1C(=O)N2[C@@H]1SC(C)(C)[C@@H]2C(=O)[O-].O.[Na+] [CLOXACILLIN SODIUM]  Hepatotoxicity  DILI positive (test set)
6  O=C1C(CC[S+]([O-])c2ccccc2)C(=O)N(c2ccccc2)N1c1ccccc1 (stereo not drawn)  Hepatotoxicity  DILI positive (test set)

We now examine a further compound.
Task: Please look up its Hepatotoxicity: O=C(O)c1ccccc1Nc1cccc(C(F)(F)F)c1
Output: DILI negative (test set)
